Target: Histamine H3 receptor
Experiment description: In Vitro Histamine H3 Receptor Binding Analysis ([3H]-N-alpha-methylhistamine displacement, rat cortical membranes)
Measurement parameters: [3H]-N-alpha-methylhistamine 0.8-1.2 nM, pH 7.4, 40 min, 25° C, read-out: Histamine H3 Receptor Binding Affinities, H3 Receptor Ki
pKi: −log10 of the molar value.
Parameter threshold = 7. Response is true (1) when pKi meets or exceeds it, else false (0).

- Compound: "NC(C=CC1CC1c1c[nH]cn1)CC1CCCCC1 (centres unmarked) [Example 20]"
  Category label: "true (1)"
- Compound: "O=C(NCCCc1ccccc1)[C@@H]1C[C@H]1c1c[nH]cn1 (relative stereo)"
  Category label: "false (0)"

Now for a further compound.
Is pKi for O=C(NCCc1c[nH]cn1)[C@@H]1C[C@H]1c1c[nH]cn1 (relative stereo) at or above 7?
false (0)

###

Target: Histamine H3 receptor
Experiment description: In Vitro Histamine H3 Receptor Binding Analysis ([3H]-N-alpha-methylhistamine displacement, rat cortical membranes)
Measurement parameters: [3H]-N-alpha-methylhistamine 0.8-1.2 nM, pH 7.4, 40 min, 25° C, read-out: Histamine H3 Receptor Binding Affinities, H3 Receptor Ki
Structures can show the parent of a compound that is named as a salt.
Some compounds, each annotated with its measured Ki.

- Compound: "NC(C=CC1CC1c1c[nH]cn1)CC1CCCCC1 (centres unmarked) [Example 21]"
  Target: "Histamine H3 receptor"
  Ki: "97.7 nM"

Quick note, Ki for O=C(NCC12CC3CC(CC(C3)C1)C2)[C@@H]1C[C@H]1c1c[nH]cn1 (relative stereo) [Example 8, hydrochloride] landed at 55 nM

Quick note, Ki for O=C(NCCC1=CCCCC1)[C@@H]1C[C@H]1c1c[nH]cn1 (relative stereo) [Example 31, HCl salt] landed at 294 nM

Quick note, Ki for NC(CC1CCCCC1)C(=O)NC1CC1c1c[nH]cn1 (centres unmarked) [Example 12] landed at 1.85 nM

Quick note, Ki for O=C(NCCCN1CCOCC1)[C@@H]1C[C@H]1c1c[nH]cn1 (relative stereo) landed at 1400 nM

Quick note, Ki for O=C(N[C@H]1C[C@@H]1c1c[nH]cn1)[C@@H]1CC2CCCCC2N1 (some centres unmarked) landed at 8.5 nM

Quick note, Ki for CC1CCCCN1CCCNC(=O)[C@@H]1C[C@H]1c1c[nH]cn1 (relative stereo) landed at 659 nM

Quick note, Ki for O=C(NCCCC1CCCCC1)[C@@H]1C[C@H]1c1c[nH]cn1 (relative stereo) landed at 36 nM

###

Target: Histamine H3 receptor
Experiment description: In Vitro Histamine H3 Receptor Binding Analysis ([3H]-N-alpha-methylhistamine displacement, rat cortical membranes)
Measurement parameters: [3H]-N-alpha-methylhistamine 0.8-1.2 nM, pH 7.4, 40 min, 25° C, read-out: Histamine H3 Receptor Binding Affinities, H3 Receptor Ki
Some compounds, each annotated with its measured pKi.
Entry type: numeric. Quantity: pKi, the -log10 of concentration in molar units.

Some compounds with recorded pKi:
- Compound: "O=C(NCC1CCCCC1)[C@@H]1C[C@H]1c1c[nH]cn1 [Example 2b]"
  pKi: 6.75
- Compound: "O=C(NCC1CCCCC1)[C@H]1C[C@@H]1c1c[nH]cn1"
  pKi: 7.64

Could you now look at the following compound, please?
Quick note, pKi for O=C(N[C@@H]1C[C@H]1c1c[nH]cn1)OCc1ccccc1 (relative stereo) landed at 8.24

###

Target: Histamine H3 receptor
Experiment description: In Vitro Histamine H3 Receptor Binding Analysis ([3H]-N-alpha-methylhistamine displacement, rat cortical membranes)
Measurement parameters: [3H]-N-alpha-methylhistamine 0.8-1.2 nM, pH 7.4, 40 min, 25° C, read-out: Histamine H3 Receptor Binding Affinities, H3 Receptor Ki
Where a name gives a salt, the structure may show the parent alone.
Labelling field: enter yes (1) if recorded Ki is less than 100 nM. Enter no (0) if it equals or exceeds that cut-off.

Consider the worked cases shown below.
- Compound: "CN(CC1CCCCC1)C(=O)[C@@H]1C[C@H]1c1c[nH]cn1 (racemic)"
  Category label: "no (0)"
- Compound: "OC(CCCC1CCCCC1)[C@@H]1C[C@H]1c1c[nH]cn1 (mixture of isomers)"
  Category label: "no (0)"
- Compound: "O=C(NCC(O)CC1CCCCC1)[C@@H]1C[C@H]1c1c[nH]cn1 (relative stereo)"
  Category label: "no (0)"
- Compound: "C[C@@H](NC(=O)C1CC1c1c[nH]cn1)C1CCCCC1 (mixture of isomers) [Example 6, hydrochloride]"
  Category label: "yes (1)"

# check: Ki < 100 nM for C(=CC1CC1c1c[nH]cn1)CCC1CCCCC1 (centres unmarked) [Example 24]
no (0)
